Listed next: entries and their corresponding viability.
Assay: MRP1 drug-resistance reversers in H69AR cells – cell-based, doxorubicin co-treatment, pilot screen (AID 601)
Conditions: H69AR cells + 2 uM doxorubicin, CellTiter-Glo, 72 h; measured here: viability with 2 uM doxorubicin; at 10 µM; stronger effect = lower value
Enter your answer as a number in %; do not include the unit.

get_value(item= "CCCCN(C)Cc1c(O)ccc2c(-c3ccccc3)cc(=O)oc12" , readout=viability) returns 88.6

Reported viability of O=C(Nc1ccncc1)C1CCCN(S(=O)(=O)c2cccc3cccnc23)C1 (stereo not drawn) : 76.2

Form: molecule = "CC(C)c1nnc(NC(=O)c2ccc(N3C(=O)CCC3=O)cc2)s1" ; viability = 94.3

// viability lookup, molecule = O=C(NCCN1C(=O)C2C3C=CC(C3)C2C1=O)Nc1ccccn1 (stereo not drawn) , result: 83.3

Form: molecule = "CCOC(=O)C(C)(C)Sc1nc2c(cnn2-c2ccc(Cl)cc2)c(=O)[nH]1" ; viability = 85.4

Record CCCC(=O)C1=C(N(C)c2ccccc2)CC(C)(C)C(C(=O)OC)C1=O (stereo not drawn) . Reported viability: 93.2

The reported viability of the molecule "COc1cccc(-c2cc(C(F)(F)F)nc(NCc3ccco3)n2)c1" was 87.7

Noted for "CCOc1ccc(N(CC(=O)Nc2ccc(F)c(F)c2)S(=O)(=O)c2c(C)noc2C)cc1" : its viability reads 64.3

Short answer for "O=C(CSc1ccc2nnc(-c3ccccc3)n2n1)N1CCN(c2ccccc2)CC1" : viability was 93.4

Just so you know, measured viability for "Cc1cccnc1-n1c(CCN2C(=O)c3ccccc3C2=O)nc2ccccc2c1=O" came out at 91.1

More entries:
The molecule listed as OC(CNCCc1ccccc1)c1ccccc1 (stereo not drawn) has a reported viability of 81.4

Lab note: measured viability of "Cc1cc(C)c(NC(=O)Cn2cc3c(n2)CCCC3)c(C)c1" was 100

viability reported for this molecule "Cn1c(SCC(=O)c2cc3ccccc3o2)nnc1-c1ccccc1" : 81.1

# viability of "CCCn1cc(SCC(N)=O)c2ccccc21" = 105

Lab note: "COc1ccc(C)cc1S(=O)(=O)N1CCN(S(=O)(=O)c2cc(C)ccc2OC)CC1" gave viability of 95.2

// "N#C/C(C(=O)N1CCOCC1)=C1/SC=C(c2ccccc2)N1c1ccccc1" : viability value = 91.3

So for "CCN(CC)CCn1c(=N)n(CCO)c2ccccc21" , the logged viability turned out to be 92.9

Notebook: c1nc(NCC2CCCO2)c2[nH]cnc2n1 (stereo not drawn) , viability read as 83.3
